Parameter % of binding in the absence of HGF: see the listing below.
Assayed target: T1, cMet-Fc fusion protein (extracellular domain of the cMet receptor expressed as an Fc-fusion protein) (human, UniProt P08581 25-932)
T1 construct: extracellular domain; also called soluble cMet-Fc-fusion protein; soluble cMet receptor; not shown: Fc part
T1 sequence (P08581 25-932): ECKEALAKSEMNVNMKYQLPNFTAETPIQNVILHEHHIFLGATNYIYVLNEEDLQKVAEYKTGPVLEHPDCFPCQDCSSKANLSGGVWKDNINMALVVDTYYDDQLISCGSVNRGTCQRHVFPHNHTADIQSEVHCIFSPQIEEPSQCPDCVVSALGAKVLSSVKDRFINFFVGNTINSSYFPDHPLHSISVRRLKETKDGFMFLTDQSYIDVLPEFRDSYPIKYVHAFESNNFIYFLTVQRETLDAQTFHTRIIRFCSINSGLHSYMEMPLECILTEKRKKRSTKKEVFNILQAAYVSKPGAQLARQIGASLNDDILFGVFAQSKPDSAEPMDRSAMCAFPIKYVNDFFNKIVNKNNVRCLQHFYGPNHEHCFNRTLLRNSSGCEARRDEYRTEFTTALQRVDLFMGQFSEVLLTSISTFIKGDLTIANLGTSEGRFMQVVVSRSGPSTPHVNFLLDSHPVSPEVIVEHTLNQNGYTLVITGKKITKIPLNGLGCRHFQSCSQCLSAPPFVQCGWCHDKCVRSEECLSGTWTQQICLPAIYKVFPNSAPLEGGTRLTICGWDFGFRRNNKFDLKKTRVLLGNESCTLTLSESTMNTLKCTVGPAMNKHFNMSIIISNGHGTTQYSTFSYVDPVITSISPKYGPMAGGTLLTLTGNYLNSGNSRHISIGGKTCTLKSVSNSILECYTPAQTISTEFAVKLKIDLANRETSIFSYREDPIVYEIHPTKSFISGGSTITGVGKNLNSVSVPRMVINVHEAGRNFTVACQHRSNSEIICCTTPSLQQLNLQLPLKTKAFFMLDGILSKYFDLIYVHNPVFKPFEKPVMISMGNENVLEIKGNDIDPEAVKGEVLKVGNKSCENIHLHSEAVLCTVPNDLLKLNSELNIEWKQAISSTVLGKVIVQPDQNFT
Assay remarks: phage ELISA on cMet-Fc, competitor HGF 500 ng/mL
Measurement label: % of binding in the absence of HGF (%)

binder="GSWIICWWDNCGSSAP [571-C05 peptide-displaying phage (SEQ ID NO: 001)]" measurement_label="% of binding in the absence of HGF" data_value=74
binder="GSFNICPYQWCTLWAP [561-C08 peptide-displaying phage (SEQ ID NO: 010)]" measurement_label="% of binding in the absence of HGF" data_value=96
binder="AQAEWVITSEEFYWKMADFGPP [75-B12 peptide-displaying phage (SEQ ID NO: 478)]" measurement_label="% of binding in the absence of HGF" data_value=108
binder="GSFAPCGWPSFAIDCIAEAP [545-C11 peptide-displaying phage (SEQ ID NO: 367)]" measurement_label="% of binding in the absence of HGF" data_value=50
binder="AQVGESLDDGWTFFSDKWFDFF [27-D10 peptide-displaying phage (SEQ ID NO: 485)]" measurement_label="% of binding in the absence of HGF" data_value=131
binder="AGNWICNLSEMRCYPKGT [456-E04 peptide-displaying phage (SEQ ID NO: 013)]" measurement_label="% of binding in the absence of HGF" data_value=81
binder="GSTMSCWRWGRDAYSCNQMAP [557-A12 peptide-displaying phage (SEQ ID NO: 372)]" measurement_label="% of binding in the absence of HGF" data_value=62
binder="AGWFQCKGPPSFECERHGT [336-G04 peptide-displaying phage (SEQ ID NO: 051)]" measurement_label="% of binding in the absence of HGF" data_value=23
binder="AGGHWCLELKHLCPPYGT [465-B06 peptide-displaying phage (SEQ ID NO: 044)]" measurement_label="% of binding in the absence of HGF" data_value=57
binder="AGMDFCEGFWFLCIGNAT [571-C11 peptide-displaying phage (SEQ ID NO: 035)]" measurement_label="% of binding in the absence of HGF" data_value=72
binder="AGTVYCSWESSECWWVGT [352-E04 peptide-displaying phage (SEQ ID NO: 019)]" measurement_label="% of binding in the absence of HGF" data_value=74
binder="GDYSECFFEPDSFEVKCYDRDP [545-H12 peptide-displaying phage (SEQ ID NO: 399)]" measurement_label="% of binding in the absence of HGF" data_value=60
binder="AGSIACTGWPYFSCIDLGT [547-H12 peptide-displaying phage (SEQ ID NO: 088)]" measurement_label="% of binding in the absence of HGF" data_value=81
binder="AQWNQWDEFMWFLNPPPIGLMW [151-B08 peptide-displaying phage (SEQ ID NO: 480)]" measurement_label="% of binding in the absence of HGF" data_value=368
binder="AGFWDCGWMMQDCHMHGT [470-C02 peptide-displaying phage (SEQ ID NO: 045)]" measurement_label="% of binding in the absence of HGF" data_value=227

Value source: patent US20120039802A1
